tested on: DAOY cells; assay: Cell Titer Glo viability assay, DAOY cells; assay type: cell-based; details: Homo sapiens, 144 h, absolute EC50
MEASURE: EC50

- COMPOUND: "C=CCn1c(=O)c2cnc(Nc3ccc4oc(C)nc4c3)nc2n1-c1cccc(OC2CCN(C)CC2)n1"
  ENDPOINT_RESULT: "≤ 100 nM"

Exercise: Request: EC50, test system DAOY cells, entry `C=CCn1c(=O)c2cnc(Nc3ccc4ncsc4c3)nc2n1-c1cccc(OC2CCN(C)CC2)n1`
Solution: 100 to 500 nM

Exercise: Request: EC50, test system DAOY cells, entry `C=CCn1c(=O)c2cnc(Nc3ccc(OCC(F)(F)F)cc3)nc2n1-c1cccc(OC2CCN(C)CC2)n1`
Solution: ≤ 100 nM

Exercise: Request: EC50, test system DAOY cells, entry `C=CCn1c(=O)c2cnc(Nc3ccc4nc(C)oc4c3)nc2n1-c1cccc(OC2CCN(C)CC2)n1`
Solution: ≤ 100 nM

Exercise: Request: EC50, test system DAOY cells, entry `C=CCn1c(=O)c2cnc(Nc3ccnc(C)c3)nc2n1-c1cccc(OC2CCN(C)CC2)n1`
Solution: 100 to 500 nM

Exercise: Request: EC50, test system DAOY cells, entry `CCn1c(=O)c2cnc(Nc3ccc4c(cnn4C)c3)nc2n1-c1cccc(OC2CCN(C)CC2)n1`
Solution: ≤ 100 nM

Exercise: Request: EC50, test system DAOY cells, entry `C=CCn1c(=O)c2cnc(Nc3ccc4scnc4c3)nc2n1-c1cccc(OC2CCN(C)CC2)n1`
Solution: ≤ 100 nM

Exercise: Request: EC50, test system DAOY cells, entry `C=CCn1c(=O)c2cnc(Nc3ccc4c(cnn4C)c3)nc2n1-c1cccc(OC2CCN(C)CC2)n1`
Solution: ≤ 100 nM

Exercise: Request: EC50, test system DAOY cells, entry `C=CCn1c(=O)c2cnc(Nc3ccc4ccoc4c3)nc2n1-c1cccc(OC2CCN(C)CC2)n1`
Solution: ≤ 100 nM

Exercise: Request: EC50, test system DAOY cells, entry `C=CCn1c(=O)c2cnc(Nc3ccc4sncc4c3)nc2n1-c1cccc(OC2CCN(C)CC2)n1`
Solution: ≤ 100 nM

Exercise: Request: EC50, test system DAOY cells, entry `C=CCn1c(=O)c2cnc(Nc3ccc4c(ccn4C)c3)nc2n1-c1cccc(OC2CCNCC2)n1`
Solution: ≤ 100 nM

====

Examples of compounds with documented pEC50 follow.
target: Myt1 kinase (CDK1 Thr14 phosphorylation in DAOY medulloblastoma cells) (Homo sapiens, UniProt Q99640); construct: pCDK1 Thr14 AlphaLISA read-out; experiment: AlphaLISA assay, Myt1 kinase target engagement (phospho-CDK1 Thr14) in DAOY cells; assay type: cell-based; conditions: 4 h treatment, read-out: CDK1 Thr14 Phosphorylation EC50
Sequence (Q99640 whole entry): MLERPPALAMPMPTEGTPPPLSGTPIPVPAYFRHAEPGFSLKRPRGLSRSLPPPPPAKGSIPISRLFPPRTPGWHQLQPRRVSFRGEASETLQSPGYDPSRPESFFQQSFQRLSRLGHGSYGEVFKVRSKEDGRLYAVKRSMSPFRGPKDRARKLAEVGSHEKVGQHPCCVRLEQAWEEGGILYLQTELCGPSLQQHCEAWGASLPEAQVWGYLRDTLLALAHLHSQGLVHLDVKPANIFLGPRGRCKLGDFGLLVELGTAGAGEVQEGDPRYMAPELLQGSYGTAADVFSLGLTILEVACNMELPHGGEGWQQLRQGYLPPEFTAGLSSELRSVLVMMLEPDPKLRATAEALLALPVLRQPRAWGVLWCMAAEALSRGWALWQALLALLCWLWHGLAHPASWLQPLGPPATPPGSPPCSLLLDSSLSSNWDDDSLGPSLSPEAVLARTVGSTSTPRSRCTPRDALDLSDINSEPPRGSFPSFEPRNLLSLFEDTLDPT
pEC50: −log10 of the molar value.

- COMPOUND: "C=CCn1c(=O)c2cnc(Nc3ccc4oc(C)nc4c3)nc2n1-c1cccc(OC2CCNCC2)n1 [Compound 232]"
  pEC50: "6.30 to 6.70"
- COMPOUND: "C=CCn1c(=O)c2cnc(Nc3ccc(Cl)cc3)nc2n1-c1cccc(NC2CCN(C)CC2)n1 [Compound 138]"
  pEC50: "< 6.00"
- COMPOUND: "C=CCn1c(=O)c2cnc(Nc3ccc4nc(C)oc4c3)nc2n1-c1cccc(OC2CCN(C)CC2)n1 [Compound 311]"
  pEC50: "> 6.70"

Exercise: Param item = C=CCn1c(=O)c2cnc(Nc3cc(C)cc(F)c3)nc2n1-c1cccc(OC2CCN(C)CC2)n1 [Compound 205] ; retrieve measured pEC50.
Solution: 6.30 to 6.70

====

target: Myt1 kinase (recombinant PMYT-1) (Homo sapiens, UniProt Q99640); construct: full length PMYT-1 was expressed by baculovirus in insect cells; purchased Invitrogen A30984; host or cells: insect cells (baculovirus); test: Myt1 kinase binding assay (LanthaScreen Eu Kinase Binding Assay); conditions: 3 nM tracer 178, 2.5 nM PMYT-1, 1 nM Eu-labeled antibody; read-out: Myt1 kinase Binding IC50
Sequence (Q99640 whole entry): as above
pIC50: −log10 of the molar value.
Examples of molecules with documented pIC50 follow.

Solved entries (count: 10):
- MOLECULE: "CCn1c(=O)c2cnc(Nc3ccc4c(ccn4C)c3)nc2n1-c1cccc(OC2CCNCC2)n1 [Compound 353]"
  pIC50: "7.00 to 7.70"
- MOLECULE: "C=CCn1c(=O)c2cnc(Nc3ccc(N4CCOCC4)cc3)nc2n1-c1cccc(OC2CCN(C)CC2)n1 [Compound 278]"
  pIC50: "7.00 to 7.70"
- MOLECULE: "C=CCn1c(=O)c2cnc(Nc3cncc(C)c3)nc2n1-c1cccc(OC2CCN(C)CC2)n1 [Compound 292]"
  pIC50: "7.00 to 7.70"
- MOLECULE: "C=CCn1c(=O)c2cnc(Nc3ccc(OCCF)cc3)nc2n1-c1ccnc(OC2CCNCC2)n1 [Compound 391]"
  pIC50: "7.00 to 7.70"
- MOLECULE: "C=CCn1c(=O)c2cnc(Nc3ccc4[nH]nc(C)c4c3)nc2n1-c1cccc(OC2CCN(C)CC2)n1 [Compound 355]"
  pIC50: "> 7.70"
- MOLECULE: "C=CCn1c(=O)c2cnc(Nc3ccc(N4CCS(=O)(=O)CC4)cc3)nc2n1-c1cccc(OC2CCN(C)CC2)n1 [Compound 369]"
  pIC50: "> 7.70"
- MOLECULE: "C=CCn1c(=O)c2cnc(Nc3ccc(OCCF)nc3)nc2n1-c1cccc(OC2CCN(C)CC2)n1 [Compound 399]"
  pIC50: "> 7.70"
- MOLECULE: "C=CCn1c(=O)c2cnc(Nc3cc(C)cc(F)c3)nc2n1-c1cccc(OC2CCN(C)CC2)n1 [Compound 205]"
  pIC50: "7.00 to 7.70"
- MOLECULE: "C=CCn1c(=O)c2cnc(Nc3ccc4cnoc4c3)nc2n1-c1cccc(OC2CCN(C)CC2)n1 [Compound 299]"
  pIC50: "7.00 to 7.70"
- MOLECULE: "C=CCn1c(=O)c2cnc(Nc3ccc4cccnc4c3)nc2n1-c1cccc(OC2CCN(C)CC2)n1 [Compound 335]"
  pIC50: "> 7.70"

Exercise: Param item = C=CCn1c(=O)c2cnc(Nc3ccc(Cl)cc3)nc2n1-c1cccc(N[C@@H]2CCCNC2)n1 [Compound 166] ; retrieve measured pIC50.
Solution: 6.30 to 7.00

Exercise: Param item = C=CCn1c(=O)c2cnc(Nc3ccc4c(c3)nnn4C(C)C)nc2n1-c1cccc(OC2CCN(C)CC2)n1 [Compound 409] ; retrieve measured pIC50.
Solution: > 7.70

Exercise: Param item = CCn1c(=O)c2cnc(Nc3ccccc3)nc2n1-c1cccc(OC2CCN(C)CC2)n1 [Compound 117] ; retrieve measured pIC50.
Solution: 7.00 to 7.70

Exercise: Param item = C=CCn1c(=O)c2cnc(Nc3ccc(OCCF)cc3)nc2n1-c1cccc(OC2CCN(C)CC2)n1 [Compound 234] ; retrieve measured pIC50.
Solution: 7.00 to 7.70

Exercise: Param item = C=CCn1c(=O)c2cnc(Nc3ccc4c(cnn4C)c3)nc2n1-c1cccc(N[C@@H]2CCN(C(C)C)C2)n1 [Compound 120] ; retrieve measured pIC50.
Solution: 6.30 to 7.00

Exercise: Param item = C=CCn1c(=O)c2cnc(Nc3cncc(C#N)c3)nc2n1-c1cccc(OC2CCN(C)CC2)n1 [Compound 330] ; retrieve measured pIC50.
Solution: 6.30 to 7.00

Exercise: Param item = C=CCn1c(=O)c2cnc(Nc3ccc(OCC4CC4)cc3)nc2n1-c1cccc(OC2CCN(C)CC2)n1 [Compound 258] ; retrieve measured pIC50.
Solution: > 7.70

Exercise: Param item = C=CCn1c(=O)c2cnc(Nc3ccc(F)cc3)nc2n1-c1cccc(OC2CCCN(C)CC2)n1 (single isomer, unassigned) [Compound 351] ; retrieve measured pIC50.
Solution: 7.00 to 7.70

====

biological target: Wee1A kinase (CDK1 Tyr15 phosphorylation in ACHN renal cell carcinoma cells) (Homo sapiens, UniProt P30291); construct: pCDK1 Tyr15 immunofluorescence read-out; assay: High-content imaging of pCdk1 Y15, Wee1A kinase target engagement in ACHN cells; format: cell-based; details: read-out: CDK1 Tyr15 Phosphorylation EC50, 4 h treatment, nuclear positivity for pCdk1 Y15 vs DMSO control
Sequence (P30291 whole entry): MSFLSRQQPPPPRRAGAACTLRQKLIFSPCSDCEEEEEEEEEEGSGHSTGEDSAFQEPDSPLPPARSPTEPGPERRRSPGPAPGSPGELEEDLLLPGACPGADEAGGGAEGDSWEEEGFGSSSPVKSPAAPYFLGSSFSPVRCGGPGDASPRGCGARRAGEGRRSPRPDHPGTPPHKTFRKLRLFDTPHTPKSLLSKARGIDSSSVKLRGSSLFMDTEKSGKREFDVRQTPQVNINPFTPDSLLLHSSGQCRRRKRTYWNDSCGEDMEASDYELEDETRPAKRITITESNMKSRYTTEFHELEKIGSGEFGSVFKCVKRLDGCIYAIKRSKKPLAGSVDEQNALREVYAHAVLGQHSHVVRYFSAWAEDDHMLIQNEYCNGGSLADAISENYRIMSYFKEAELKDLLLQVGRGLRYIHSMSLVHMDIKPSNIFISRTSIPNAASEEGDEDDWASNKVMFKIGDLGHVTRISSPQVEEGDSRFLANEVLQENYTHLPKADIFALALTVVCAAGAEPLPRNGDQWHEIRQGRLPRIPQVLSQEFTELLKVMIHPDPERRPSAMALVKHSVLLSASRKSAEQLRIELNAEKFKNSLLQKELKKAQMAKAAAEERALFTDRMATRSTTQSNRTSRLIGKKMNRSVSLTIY
pEC50: −log10 of the molar value.
MEASURE: pEC50

- COMPOUND: "C=CCn1c(=O)c2cnc(Nc3cnn(C(C)C)c3)nc2n1-c1cccc(N(C)C2CCN(C)CC2)n1"
  ENDPOINT_RESULT: "6.30 to 7.00"
- COMPOUND: "C=CCn1c(=O)c2cnc(Nc3cnn(CC(C)C)c3)nc2n1-c1cccc(N(C)C2CCN(C)CC2)n1"
  ENDPOINT_RESULT: "6.00 to 6.30"
- COMPOUND: "C=CCn1c(=O)c2cnc(Nc3ccc(Cl)cc3)nc2n1-c1cccc(N(CCC)C2CCN(C)CC2)n1"
  ENDPOINT_RESULT: "6.00 to 6.30"
- COMPOUND: "C=CCn1c(=O)c2cnc(Nc3ccc4c(cnn4C)c3)nc2n1-c1cccc(N(C)C2CCN(C)CC2)c1"
  ENDPOINT_RESULT: "< 6.00"
- COMPOUND: "C=CCn1c(=O)c2cnc(Nc3cnn(C)c3)nc2n1-c1cccc(N(C)C2CCNCC2)n1"
  ENDPOINT_RESULT: "< 6.00"
- COMPOUND: "C=CCn1c(=O)c2cnc(Nc3ccc(Cl)cc3)nc2n1-c1cccc(N(C)C2CCNCC2)n1"
  ENDPOINT_RESULT: "6.00 to 6.30"
- COMPOUND: "C=CCn1c(=O)c2cnc(Nc3ccc(Cl)cc3)nc2n1-c1cccc(O[C@H]2CN3CCC2CC3)n1"
  ENDPOINT_RESULT: "< 6.00"

Exercise: Param item = `C=CCn1c(=O)c2cnc(Nc3cnn(C)c3)nc2n1-c1cccc(O[C@H]2C[C@H]3CC[C@@H](C2)N3C)n1` ; retrieve measured pEC50.
Solution: 6.30 to 7.00
